- system: furin, P09958;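 further: purified furin at 1:10 enzyme:substrate in 50 mM HEPES pH 7.5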
- Sequence (P09958 whole entry): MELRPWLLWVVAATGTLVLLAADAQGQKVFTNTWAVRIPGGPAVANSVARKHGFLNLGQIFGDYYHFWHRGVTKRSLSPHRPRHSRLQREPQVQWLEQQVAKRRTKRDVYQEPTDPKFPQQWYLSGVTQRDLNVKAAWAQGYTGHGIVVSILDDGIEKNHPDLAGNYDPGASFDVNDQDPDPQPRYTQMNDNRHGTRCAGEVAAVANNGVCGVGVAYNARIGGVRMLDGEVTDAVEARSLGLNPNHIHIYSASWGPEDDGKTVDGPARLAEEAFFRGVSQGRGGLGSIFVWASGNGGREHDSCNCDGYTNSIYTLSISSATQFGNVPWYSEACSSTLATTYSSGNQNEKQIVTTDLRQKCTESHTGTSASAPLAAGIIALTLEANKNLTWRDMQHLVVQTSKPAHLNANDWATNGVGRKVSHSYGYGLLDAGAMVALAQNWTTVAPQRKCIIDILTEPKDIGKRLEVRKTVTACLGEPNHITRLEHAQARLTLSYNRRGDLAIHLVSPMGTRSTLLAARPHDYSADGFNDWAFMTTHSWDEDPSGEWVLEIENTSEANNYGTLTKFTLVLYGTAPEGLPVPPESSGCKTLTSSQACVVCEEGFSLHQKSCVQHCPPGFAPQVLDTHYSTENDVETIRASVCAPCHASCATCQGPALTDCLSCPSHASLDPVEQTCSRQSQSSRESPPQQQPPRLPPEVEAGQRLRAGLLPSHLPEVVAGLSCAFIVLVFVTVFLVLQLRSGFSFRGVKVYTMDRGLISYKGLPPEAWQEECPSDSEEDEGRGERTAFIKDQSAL
- procedure.details: furin cleavage Z-score vs untreated control; higher = more cleavage, active = 3.5 or more, inactive = 1 or less, 8 variable residues between constant flanks
- experimental.context: 30 min
This is one part of the list. No count for the full screen is at hand.
furin cleavage Z-score of -0.2 or higher: 1.0. Under -0.2: 0.0.

{"chain.sequence": "CARFARYYRDAGNASASA [FS-373]", "cat": 1.0}
{"chain.sequence": "CARQRRAAKGAGNASASA [FS-3230]", "cat": 1.0}
{"chain.sequence": "CALETTMRSPAGNASASA [HC761]", "cat": 0.0}
{"chain.sequence": "CARHRRIHSGAGNASASA [FS-2945]", "cat": 0.0}
{"chain.sequence": "CARQKKTTGGAGNASASA [FS-3034]", "cat": 0.0}
{"chain.sequence": "CAAGCAWYELAGNASASA [HC922]", "cat": 0.0}
{"chain.sequence": "CARLRRFQKGAGNASASA [FS-2714]", "cat": 0.0}
{"chain.sequence": "CARKKKGKADAGNASASA [FS-2690]", "cat": 0.0}
{"chain.sequence": "CARKKREIRSAGNASASA [FS-2962]", "cat": 1.0}
{"chain.sequence": "CARQRRAAGGAGNASASA [FS-2588]", "cat": 1.0}
{"chain.sequence": "CAEVPCHRPIAGNASASA [HC2404]", "cat": 1.0}
{"chain.sequence": "CASSNRLARFAGNASASA [FS-1284]", "cat": 1.0}
{"chain.sequence": "CARILRSAWGAGNASASA [FS-2684]", "cat": 1.0}
{"chain.sequence": "CAEVMCHRPSAGNASASA [HC2346]", "cat": 1.0}

FYI, the data here is from the supplement of paper PMC3545927.
